These measurements were taken from patent US20250129103A1.

molecular target: KRAS G12C (GMPPNP-loaded) and cRAF (Ras-binding domain) interaction (Homo sapiens (Human), UniProt P01116, C118S/C51S/C80L/G12C); experiment: Inhibition of KRAS G12C and cRAF binding (AlphaScreen); settings: KRAS G12C loaded with GMPPNP, cRaf RBD, 2 hours preincubation; read-out: Raf-1 RBD K-Ras IC50
Sequence (P01116 other isoform, or with tags, fused parts or gaps G12C/C51S/C80L/C118S): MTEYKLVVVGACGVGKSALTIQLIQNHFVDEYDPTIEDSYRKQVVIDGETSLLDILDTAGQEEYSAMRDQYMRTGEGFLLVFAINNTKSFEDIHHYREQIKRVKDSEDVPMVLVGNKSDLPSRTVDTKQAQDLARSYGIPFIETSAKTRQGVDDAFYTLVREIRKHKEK
Entries annotated with measured IC50

chemicalSmiles | IC50
CC1(C)CN(C/C=C/C(=O)N2CCN(c3nc(OCC45CCCN4CCC5)nc4c3CCN(c3cccc5cccc(Cl)c35)C4)C[C@@H]2CC#N)CCO1 | < 10 nM
C[C@@H]1CN(C/C=C/C(=O)N2CCN(c3nc(OC[C@@]45CCCN4C[C@H](F)C5)nc4c(F)c(-c5cccc6ccc(F)c(F)c56)ncc34)C[C@@H]2CC#N)C[C@H](C)O1 | 10 to 100 nM
Cc1noc(/C=C/C(=O)N2CCN(c3nc(OC[C@@]45CCCN4C[C@H](F)C5)nc4c3CCN(c3cccc5cccc(Cl)c35)C4)C[C@@H]2CC#N)n1 | 10 to 100 nM
Cc1c(F)ccc2cccc(-c3ncc4c(N5CCN(C(=O)/C=C/CN6CC7CC(C6)O7)[C@@H](CC#N)C5)nc(OC[C@@]56CCCN5C[C@H](F)C6)nc4c3F)c12 | < 10 nM
